experiment: gradient 5% acetonitrile 3 min, to 50% in 2 min, to 85% in 15 min, held 3 min, 100 µL/min
condition-summary: column: Zorbax Extend-C18 2.1 x 50 mm; eluents: water / acetonitrile, 0.1% formic acid
readout-name: RP-LC retention time (s)

Illustrative cases are given below, each with its answer.
molecule	measurement-unit	RP-LC retention time
Cc1ccc(CNC(=O)Cn2cc(C(=O)N3CCCC3)c(=O)c3ccc(C)nc32)cc1	s	694
CCc1ccc(CNC(=O)C2CCN(c3cc(Oc4ccc(CC)cc4)ncn3)CC2)cc1	s	1120
Cc1nn(-c2ccccc2)c(C)c1S(=O)(=O)N1CCC(C(=O)Nc2ccccc2Cl)CC1	s	995
COc1ccc(N2CC(c3noc(-c4ccc(C(C)(C)C)cc4)n3)CC2=O)cc1OC (configuration not stated)	s	1140
O=C(NCCN1CCCCCC1)C1CCN(c2nc3cccnc3s2)CC1	s	598

[P] COc1ccc(C(=O)Nc2c(-c3ccc(F)cc3)nc3ccccn23)cc1OC
[Q] CCc1ccc(C2=C(C)C(N3CCCN(C(=O)C4CCCC4)CC3)=NS2(=O)=O)cc1
Kindly compare P with Q and tell me which has the lower RP-LC retention time figure. Please identify the chosen entry by its label.
P
(P: 625 s, Q: 946 s)

----------
experiment: gradient 5% acetonitrile 3 min, to 50% in 2 min, to 85% in 15 min, held 3 min, 100 µL/min
condition-summary: column: Zorbax Extend-C18 2.1 x 50 mm; eluents: water / acetonitrile, 0.1% formic acid
readout-name: RP-LC retention time (s)

Illustrative cases are given below, each with its answer.
compound	RP-LC retention time (s)
Cc1ccc2[nH]c(=O)c(CCC(=O)N3CCN(c4ncccn4)CC3)cc2c1	686
CCOc1ccc(NC(=O)C2CCN(S(=O)(=O)c3ccc4c(c3)NC(=O)C(CC)O4)CC2)cc1 (stereo unspecified)	888
O=C(Nc1ccc2c(c1)CCC2)C1CC(=O)N(CCc2c[nH]c3ccc(Cl)cc23)C1 (stereo unspecified)	921
Cc1cccc(C(=O)Nc2ccc3c(c2)Sc2ncccc2C(=O)N3C(C)C)c1	898
CCc1nc(-c2csc(S(=O)(=O)N3CCCC(C(=O)Nc4cc(C)cc(C)c4)C3)c2)no1 (stereo unspecified)	1090

[1] Cc1noc([C@@H]2CC(F)(F)CN2S(=O)(=O)c2ccc(F)cc2)n1
[2] CCCN1CCN(C(=O)Cn2ccc3ccc(-c4nnc(C)o4)cc32)CC1
Return label of the item with the larger RP-LC retention time. Candidates: 1 , 2 . Please identify the chosen entry by its label.
1

[P] CN(CCc1noc(COc2ccc(F)cc2)n1)C(=O)Nc1ccccc1Cl
[Q] Cc1cc2oc(C(=O)NCC(c3cccs3)N(C)C)cc(=O)c2cc1Cl (stereo unspecified)
Kindly compare P with Q and tell me which has the lower RP-LC retention time figure. Please identify the chosen entry by its label.
Q
(Q: 652 s, P: 962 s)

----------
experiment: gradient 5% acetonitrile 3 min, to 50% in 2 min, to 85% in 15 min, held 3 min, 100 µL/min
condition-summary: column: Zorbax Extend-C18 2.1 x 50 mm; eluents: water / acetonitrile, 0.1% formic acid
readout-name: RP-LC retention time (s)

compound	measurement-unit	RP-LC retention time
CN(CC(=O)O)c1nc2c(F)cccc2s1	s	689
Cc1noc(C)c1-c1ccc(S(=O)(=O)Nc2ccc(F)c(F)c2)cc1	s	939
O=C(c1cccs1)N1CCC(Nc2ncnc3c2CCC3)C1 (configuration not stated)	s	547
O=S(=O)(c1ccc2c(c1)-c1oncc1CO2)N1CCN(c2ccccn2)CC1	s	647
Cc1csc(NC(=O)c2sc3nc(-c4cccc([N+](=O)[O-])c4)cn3c2C)n1	s	800
CCOc1ccc(S(=O)(=O)N2CCC(C(=O)Nc3ccc(Br)cc3F)CC2)cc1	s	1060

[1] O=C(CCC1CCCN(C(=O)Nc2ccccc2)C1)NCc1cccc(F)c1 (configuration not stated)
[2] Cc1ccc(-c2nc(-c3ccc(-n4cccn4)nc3)no2)cc1F
Kindly compare 1 with 2 and tell me which has the lower RP-LC retention time figure. Please identify the chosen entry by its label.
1

[a] COc1ccc(C(=O)N2CCN(c3cc(C)n4cnnc4n3)CC2)cn1
[b] CC(Cc1ccco1)NC(=O)c1ccc2ccnc(N3CCN(c4ccc(F)cc4)CC3)c2c1 (configuration not stated)
[c] CCOc1ccc(-c2nc(Cc3noc(-c4cccc(OC)c4)n3)c(C)o2)cc1
Give the ascending ranking of the items by reported RP-LC retention time. Answer by writing out the labels in the requested order.
a, b, c

[A] COc1ccc(S(=O)(=O)N2CCCC(C(=O)NC3CC3)C2)cc1OC (configuration not stated)
[B] O=C(NC1CCCC1)C1CCCN(c2nccnc2Sc2ccccc2)C1 (configuration not stated)
Return label of the item with the larger RP-LC retention time. Candidates: A , B . Please identify the chosen entry by its label.
B

[P] CS(=O)(=O)Nc1ccc(CC(=O)NC2CC2)cc1
[Q] O=C(Nc1nc(-c2cccc3ccccc23)cs1)C1CCCO1 (configuration not stated)
Kindly compare P with Q and tell me which has the lower RP-LC retention time figure. Please identify the chosen entry by its label.
P
(P: 585 s, Q: 978 s)

----------
experiment: gradient 5% acetonitrile 3 min, to 50% in 2 min, to 85% in 15 min, held 3 min, 100 µL/min
condition-summary: column: Zorbax Extend-C18 2.1 x 50 mm; eluents: water / acetonitrile, 0.1% formic acid
readout-name: RP-LC retention time (s)

compound	measurement-unit	RP-LC retention time
O=C(NCc1cscn1)C1CCN(S(=O)(=O)c2cccc(Cl)c2)CC1	s	747
CC(C)N1CCN(C(=O)C2CCc3sc(C(=O)N4CCCCCC4)cc3C2)CC1 (configuration not stated)	s	619
COc1ccc(Cl)cc1NC(=O)N1CCC2(CC1)N=C(c1ccccc1)C(=O)N2	s	909

[P] COc1ccc(C(=O)C(C)OC(=O)C(C)N2C(=O)c3ccccc3C2=O)cc1 (configuration not stated)
[Q] Cc1ccc(S(=O)(=O)N2CCC3(CC2)CCC(O)(CN2CCCC2)CC3)c(C)c1
Kindly compare P with Q and tell me which has the lower RP-LC retention time figure. Please identify the chosen entry by its label.
Q

[A] COc1ccc2[nH]cc(C(=O)O)c(=O)c2c1
[B] CCCCN(C)C(=O)Cn1nc(C)c2sc(-c3ccccc3)nc2c1=O
Return label of the item with the larger RP-LC retention time. Candidates: A , B . Please identify the chosen entry by its label.
B
(B: 865 s, A: 605 s)

----------
experiment: gradient 5% acetonitrile 3 min, to 50% in 2 min, to 85% in 15 min, held 3 min, 100 µL/min
condition-summary: column: Zorbax Extend-C18 2.1 x 50 mm; eluents: water / acetonitrile, 0.1% formic acid
readout-name: RP-LC retention time (s)

Illustrative cases are given below, each with its answer.
compound	measurement-unit	RP-LC retention time
CCCCNC(=O)c1cn(C)nc1S(=O)(=O)N1CCC(C)CC1	s	938
COc1ccc(CCn2ccc3nc(N4CCN(C)CC4)ncc3c2=O)cc1OC	s	605

[A] CCCCOc1ccc(C(=O)N2CCCC2c2nc(-c3ccc(OC)cc3)no2)cc1 (centres undefined)
[B] COc1ncc(C(=O)Nc2ccc(F)cc2F)c(C)n1
Kindly compare A with B and tell me which has the lower RP-LC retention time figure. Please identify the chosen entry by its label.
B

----------
experiment: gradient 5% acetonitrile 3 min, to 50% in 2 min, to 85% in 15 min, held 3 min, 100 µL/min
condition-summary: column: Zorbax Extend-C18 2.1 x 50 mm; eluents: water / acetonitrile, 0.1% formic acid
readout-name: RP-LC retention time (s)

compound	readout-name	measurement-unit	assay-value
CCN1c2cc(F)ccc2C(=O)NC12CCN(C(=O)c1cccc(F)c1)CC2	RP-LC retention time	s	791
O=C(Nc1nc(-c2nc3ccccc3s2)cs1)c1ccno1	RP-LC retention time	s	810
O=C1Nc2ccccc2SC1C(=O)N1CCC(C(=O)N2CCN(c3ccc(F)cc3)CC2)CC1 (centres undefined)	RP-LC retention time	s	778
CC(=O)c1ccc(S(=O)(=O)NCCC2CCN(C(=O)c3ccc(F)cc3)CC2)cc1	RP-LC retention time	s	795

----------
experiment: gradient 5% acetonitrile 3 min, to 50% in 2 min, to 85% in 15 min, held 3 min, 100 µL/min
condition-summary: column: Zorbax Extend-C18 2.1 x 50 mm; eluents: water / acetonitrile, 0.1% formic acid
readout-name: RP-LC retention time (s)

Illustrative cases are given below, each with its answer.
compound	assay-value
CC(C)NC(=O)c1ccc2c(c1)CCN2C(=O)C1CC1	808
CCCN(C)CC1(O)CCC2(CCN(C(=O)c3ccsc3)CC2)CC1	590
Fc1ccc(CN2CCO[C@@H](COc3ccccn3)[C@@H]2c2ccccc2)c(F)c1	894
COc1ccc(CSc2nc3ccccc3[nH]2)cc1	625
CCC1CN2C=NC(N3CCN(C(=O)Nc4ccc(OC)c(F)c4)CC3)=CC2=N1 (stereo not drawn)	622

[a] Cc1ccc(S(=O)(=O)CCc2noc(C(=O)NCCc3ccc(S(N)(=O)=O)cc3)n2)cc1
[b] CCN(C(=O)Cc1ccccc1)c1nc(-c2ccc(C)cc2)cs1
Return label of the item with the larger RP-LC retention time. Candidates: a , b . Please identify the chosen entry by its label.
b
